# System: VDCC
# assay.summary: VDCC inhibition: calcium entry (Fluo-4 fluorescence) after depolarization with 60 mM KCl in SH-SY5Y neuroblastoma cells
# Format: cell-based, human
# condition.details: compound at 10^−7, 10 min exposure
Each entry below carries its recorded % of calcium entry inhibition.
attribute.measured: % of calcium entry inhibition (%)

{"columns": ["compound", "attribute.measured", "measured.result"],
 "data": [
  ["COc1ccc(C(=O)NCCCOc2ccc(CCNC(=O)c3ccc(OC)cc3OCC=C(C)C)cc2)c(OCC=C(C)C)c1 [Compound 17]", "% of calcium entry inhibition", 0],
  ["CCC(C)Oc1cc(OC)ccc1C(=O)NCCCCCCNC(=O)c1ccc(OC)cc1OC(C)CC (stereo not drawn) [Compound 20]", "% of calcium entry inhibition", 0],
  ["COCOc1cc(OC)ccc1C(=O)NCCCOc1c(Br)cc(CCNC(=O)c2ccc(OC)cc2OCOC)cc1Br [Compound 4]", "% of calcium entry inhibition", 6],
  ["COc1cc(O)c(C(=O)NCCCCCNC(=O)c2cc(Br)c(OC)c(Br)c2O)cc1Br [Compound 6]", "% of calcium entry inhibition", 27.5],
  ["CCCOc1cc(OC)ccc1C(=O)NCCCOc1ccc(CCNC(=O)c2ccc(OC)cc2OCCC)cc1 [Compound 9]", "% of calcium entry inhibition", 0],
  ["COCOc1cc(OC)ccc1C(=O)NCCCOc1ccc(CCNC(=O)c2ccc(OC)cc2OCOC)cc1 [Compound 2]", "% of calcium entry inhibition", 29.7],
  ["COc1ccc(C(=O)NCCCOc2ccc(CCNC(=O)c3ccc(OC)cc3OC)cc2)c(OC)c1 [Compound 15]", "% of calcium entry inhibition", 0],
  ["COCCOc1cc(OC)ccc1C(=O)NCCCOc1ccc(CCNC(=O)c2ccc(OC)cc2OCCOC)cc1 [Compound 10]", "% of calcium entry inhibition", 0],
  ["CCC(C)Oc1cc(OC)ccc1C(=O)NCCCOc1ccc(CCNC(=O)c2ccc(OC)cc2OC(C)CC)cc1 (stereo not drawn) [Compound 19]", "% of calcium entry inhibition", 0]
]}
